test system: HepG2 cells; assay: ACLY HepG2 14C-pyruvate incorporation assay with serum (IC50 Fatty Acid); assay type: cell-based; details: Homo sapiens, Table 8, with serum, read-out: ACLY HepG2 ^14C- Pyruvate Assay with serum IC50 Fatty Acid 96 well (IC50)
pIC50: −log10 of the molar value.
readout_label: pIC50

Below, each entry is followed by its recorded pIC50 result.
INSERT INTO assay_data (compound, val) VALUES
  ('COc1ccc(-c2cc3cc(Cl)ccc3n2S(=O)(=O)c2cc(Br)cc(Cl)c2O)cn1 [I-28]', '≥ 5.00'),
  ('N#Cc1ccc2c(c1)cc(-c1ccc(OC(F)(F)F)cc1)n2S(=O)(=O)c1cc(F)cc(F)c1O [I-81]', '≥ 5.00'),
  ('COc1ccc(-c2cc3cc(Cl)ccc3n2S(=O)(=O)c2cc(Br)cc(Cl)c2O)cc1 [I-26]', '≥ 5.00');

From here, focus on the item given below.
Exercise: Give the reported pIC50 for O=S(=O)(c1cc(F)cc(F)c1O)n1c(-c2ccccc2)cc2cc(Cl)ccc21 [I-61] (system: HepG2 cells).
Solution: ≥ 5.00

###

target: ACL (Homo sapiens (Human), UniProt P53396); test: ADP-Glo Assay; assay type: biochemical; conditions: 3 nM ACL, 15 μM ATP, 3 μM CoA, 300 μM Citrate
Sequence (P53396 whole entry, species assumed): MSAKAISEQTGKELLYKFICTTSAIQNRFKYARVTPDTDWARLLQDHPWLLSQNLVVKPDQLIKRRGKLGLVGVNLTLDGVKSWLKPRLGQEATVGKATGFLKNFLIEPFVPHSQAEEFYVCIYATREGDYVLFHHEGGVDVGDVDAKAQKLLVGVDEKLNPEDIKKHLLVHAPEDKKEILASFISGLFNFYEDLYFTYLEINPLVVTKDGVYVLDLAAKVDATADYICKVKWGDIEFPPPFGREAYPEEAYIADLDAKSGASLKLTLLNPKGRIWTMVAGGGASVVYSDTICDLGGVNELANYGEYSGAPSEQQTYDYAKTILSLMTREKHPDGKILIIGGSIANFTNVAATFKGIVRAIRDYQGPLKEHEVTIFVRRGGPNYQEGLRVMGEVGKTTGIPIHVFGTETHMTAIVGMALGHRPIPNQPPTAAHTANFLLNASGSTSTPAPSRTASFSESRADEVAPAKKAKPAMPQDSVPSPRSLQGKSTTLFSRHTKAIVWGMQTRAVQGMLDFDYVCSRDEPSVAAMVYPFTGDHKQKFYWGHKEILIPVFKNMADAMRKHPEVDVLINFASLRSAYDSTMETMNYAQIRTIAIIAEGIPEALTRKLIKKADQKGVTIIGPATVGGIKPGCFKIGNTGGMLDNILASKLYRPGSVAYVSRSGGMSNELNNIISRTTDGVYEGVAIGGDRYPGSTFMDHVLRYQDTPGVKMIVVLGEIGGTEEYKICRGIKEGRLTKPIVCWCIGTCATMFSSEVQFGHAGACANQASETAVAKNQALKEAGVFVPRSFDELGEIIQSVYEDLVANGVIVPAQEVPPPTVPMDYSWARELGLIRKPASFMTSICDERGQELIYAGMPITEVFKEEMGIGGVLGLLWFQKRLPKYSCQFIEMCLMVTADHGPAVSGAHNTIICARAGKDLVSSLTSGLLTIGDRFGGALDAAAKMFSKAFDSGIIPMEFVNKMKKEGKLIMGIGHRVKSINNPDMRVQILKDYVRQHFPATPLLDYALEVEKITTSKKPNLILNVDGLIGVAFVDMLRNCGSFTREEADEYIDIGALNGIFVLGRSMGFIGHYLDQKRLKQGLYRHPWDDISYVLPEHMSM
pIC50: −log10 of the molar value.
readout_label: pIC50

Below, each entry is followed by its recorded pIC50 result.
INSERT INTO measurements (compound, val) VALUES
  ('O=S(=O)(c1cc(Cl)cc(Cl)c1O)N1CC2(CCOCC2)c2ccccc21 [I-6]', '4.70 to 6.30'),
  ('O=C(O)c1cccc(-c2cc3cc(Cl)ccc3n2S(=O)(=O)c2cc(Br)cc(Cl)c2O)c1 [I-44]', '> 6.30'),
  ('O=S(=O)(c1cc(Br)cc(Cl)c1O)n1c(-c2cccnc2)cc2cc(Cl)ccc21 [I-34]', '> 6.30'),
  ('O=C(O)c1c(-c2ccccc2)c2cc(Cl)ccc2n1S(=O)(=O)c1cc(Cl)cc(Cl)c1 [I-104]', '4.70 to 6.30');

Exercise: Give the reported pIC50 for O=S(=O)(c1cc(F)cc(F)c1O)n1c(-c2ccc[n+]([O-])c2)cc2cc(Cl)ccc21 [I-98] (system: ACL (Homo sapiens (Human), UniProt P53396)).
Solution: 4.70 to 6.30

Exercise: Give the reported pIC50 for O=S(=O)(c1cncc(O)c1)n1c(-c2ccccc2)cc2cc(Cl)ccc21 [I-119] (system: ACL (Homo sapiens (Human), UniProt P53396)).
Solution: ≤ 4.70

Exercise: Give the reported pIC50 for O=C(O)c1ccc(-c2cc3cc(Cl)ccc3n2S(=O)(=O)c2cc(Cl)cc(Cl)c2)cc1 [I-58] (system: ACL (Homo sapiens (Human), UniProt P53396)).
Solution: 4.70 to 6.30

Exercise: Give the reported pIC50 for O=S(=O)(c1ccccc1O)n1c(-c2ccccc2)cc2cc(Cl)ccc21 [I-106] (system: ACL (Homo sapiens (Human), UniProt P53396)).
Solution: ≤ 4.70

Exercise: Give the reported pIC50 for O=S(=O)(c1cc(Br)cc(Cl)c1O)n1c(-c2ccccc2)cc2ccccc21 [I-23] (system: ACL (Homo sapiens (Human), UniProt P53396)).
Solution: 4.70 to 6.30
